target: HLA-A*31:01; assay: IEDB peptide-MHC binding, purified MHC/competitive/fluorescence; filed as Kd, often an IC50 or EC50 that approximates it; bounds were set here for any values at or beyond the usual limits of such assays; details: source organism: Bacillus thuringiensis serovar sotto str. T04001
measured quantity: Kd (nM)
API: value field is a number in nM; no unit string.

Looking up "TVIRFWHAM" , I see its Kd listed as 34.4

---

biological target: HLA-A*26:01; test: IEDB peptide-MHC binding, purified MHC/direct/fluorescence; filed as Kd, often an IC50 or EC50 that approximates it; bounds were set here for any values at or beyond the usual limits of such assays; settings: source organism: Brucella suis 1330
measured quantity: Kd

Looking up "QAHMGIAGL" , I see its Kd listed as ≥ 20 µM
